# Test system: S. aureus ATCC 43300 (MRSA)
# assay-method-text: Microbroth dilution MIC (CLSI)
# Format: cell-based
# condition-notes: Staphylococcus aureus; S. aureus ATCC 43300 (MRSA); read-out: MIC
# Method: The chemical entities described in the present invention were assessed for their antimicrobial activity using a microbroth dilution assay as recommended by the CLSI (Methods for Dilution Antimicrobial Susceptibility Tests for Bacteria That Grow Aerobically, and Methods for Antimicrobial Susceptibility Testing of Anaerobic Bacteria, Clinical and Laboratory Standards Institute, Document M07-A8, and M11-A8, Wayne, PA 19087, USA, 2012.). Compounds were dissolved by using 100% DMSO. […]
Answer each item with its documented MIC.

Input: May I ask what MIC has been recorded for `Cc1[nH]c(C(=O)Nc2ccc(-c3n[nH]c(=O)o3)cc2OCc2ccccc2)c(Cl)c1Cl` ?
Output: ≥ 32 µg/mL

Input: May I ask what MIC has been recorded for `Cc1[nH]c(C(=O)Nc2ccc(-c3n[nH]c(=O)o3)cc2N2CCOCC2)c(Cl)c1Cl` ?
Output: 0.25 µg/mL

Input: May I ask what MIC has been recorded for `Cc1[nH]c(C(=O)Nc2ccc(-c3nnn[nH]3)cc2N2CCOCC2)c(Cl)c1Cl` ?
Output: ≥ 64 µg/mL

Input: May I ask what MIC has been recorded for Cc1[nH]c(C(=O)Nc2ccc(-c3n[nH]c(=O)o3)cc2N2CCOC(C)C2)c(Cl)c1Cl (stereo not drawn) ?
Output: ≥ 64 µg/mL

Input: May I ask what MIC has been recorded for `Cc1[nH]c(C(=O)Nc2ccc(-c3noc(=O)[nH]3)cc2N2CCCC2)c(Cl)c1Cl` ?
Output: 0.5 µg/mL

Input: May I ask what MIC has been recorded for `Cc1[nH]c(C(=O)Nc2ccc(-c3noc(=O)[nH]3)cc2N2CCN(c3ccccc3)CC2)c(Cl)c1Cl` ?
Output: 0.0625 µg/mL

Input: May I ask what MIC has been recorded for `Cc1[nH]c(C(=O)Nc2ccc(-n3nn[nH]c3=O)cc2N2CCN(c3ccccc3)CC2)c(Cl)c1Cl` ?
Output: ≥ 32 µg/mL

Input: May I ask what MIC has been recorded for Cc1[nH]c(C(=O)Nc2ccc(-c3n[nH]c(=O)o3)cc2OCC2CCCNC2)c(Cl)c1Cl.Cl (stereo not drawn) ?
Output: > 64 µg/mL

Input: May I ask what MIC has been recorded for `Cc1[nH]c(C(=O)Nc2ccc(-n3nn[nH]c3=O)cc2N2Cc3ccccc3C2)c(Cl)c1Cl` ?
Output: > 64 µg/mL

----------
Answer each item with its documented IC50.
# study-target: E. coli DNA gyrase (Escherichia coli, UniProt P0AES6)
# Construct: purchased Inspiralis
# assay-method-text: biochemical
# condition-notes: E. coli DNA gyrase; read-out: IC50
Reply with the number, then its unit.

Input: May I ask what IC50 has been recorded for Cc1[nH]c(C(=O)Nc2ccc(-c3nn[nH]n3)cc2N2CCCC(CN)C2)c(Cl)c1Cl.Cl (centres unmarked) [Example 9] ?
Output: 2.16 nM

Input: May I ask what IC50 has been recorded for Cc1[nH]c(C(=O)Nc2ccc(-c3n[nH]c(=O)o3)cc2N2CC[C@H](N)C2)c(Cl)c1Cl.Cl [Example 20] ?
Output: 2.8 nM

Input: May I ask what IC50 has been recorded for Cc1[nH]c(C(=O)Nc2ccc(-c3n[nH]c(=O)o3)cc2OCc2ccncc2)c(Cl)c1Cl [Example 30] ?
Output: 42.2 nM

Input: May I ask what IC50 has been recorded for Cc1[nH]c(C(=O)Nc2ccc(-c3n[nH]c(=O)o3)cc2NC2CCNCC2)c(Cl)c1Cl.Cl [Example 19] ?
Output: 4.4 nM

Input: May I ask what IC50 has been recorded for Cc1[nH]c(C(=O)Nc2ccc(C(=O)O)cc2N2CCN(c3ccccc3)CC2)c(Cl)c1Cl [Example 16] ?
Output: 199 nM

Input: May I ask what IC50 has been recorded for Cc1[nH]c(C(=O)Nc2ccc(-c3n[nH]c(=O)o3)cc2OCc2cccs2)c(Cl)c1Cl [Example 33] ?
Output: 3740 nM

Input: May I ask what IC50 has been recorded for Cc1[nH]c(C(=O)Nc2ccc(-c3n[nH]c(=O)o3)cc2N2CCOCC2)c(Cl)c1Cl [Example 42] ?
Output: 82.2 nM

Input: May I ask what IC50 has been recorded for Cc1[nH]c(C(=O)Nc2ccc(-c3n[nH]c(=O)o3)cc2OC2CCNCC2)c(Cl)c1Cl.Cl [Example 27] ?
Output: 2.26 nM

Origin of the recorded values: patent US20250002455A1
